Measured Body weight (g) Pre-dose accompanies every entry in the list below.
Test system: HL-60 xenografts
Assay: HL-60 xenografts in nude mice
Format: in vivo
Conditions: HL-60 xenograft nude mice, before dosing
Reply numerically in g, unit not repeated.

CCC1=C[C@@H]2CN(C1)Cc1c([nH]c3ccccc13)[C@@](C(=O)OC)(c1cc3c(cc1OC)N(C)[C@H]1[C@@](O)(C(=O)NN)[C@H](O)[C@]4(CC)C=CCN5CC[C@]31[C@@H]54)C2 [JJ-CCRB, hydrazinolyzed vinorelbine] | 19.5
CC[C@]12C=CCN3CC[C@@]4(c5cc([C@@]6(C(=O)OC)C[C@@H]7C[C@@H](C(C)(F)F)CN(Cc8c6[nH]c6ccccc86)C7)c(OC)cc5N(C)[C@H]4[C@@](O)(C(=O)NN)[C@@H]1O)[C@@H]32 [JJ-CCFN, hydrazinolyzed vinflunine] | 19.2
CC[C@]1(O)C[C@@H]2CN(CCc3c([nH]c4ccccc34)[C@@](C(=O)OC)(c3cc4c(cc3OC)N(C)[C@H]3[C@@](O)(C(=O)OC)[C@H](OC(C)=O)[C@]5(CC)C=CCN6CC[C@]43[C@@H]65)C2)C1 [Vinblastine, reference compound] | 19.4
CCC1(O)CC2CN(CCc3c([nH]c4ccccc34)C(C(=O)OC)(c3cc4c(cc3OC)N(C=O)C3C(O)(C(=O)NNC(=O)C5CCCN5C(=O)CNC(=O)OCc5ccccc5)C(O)C5(CC)C=CCN6CCC43C65)C2)C1 (stereo not drawn) | 19.3
CCC1=CC2CN(C1)Cc1c([nH]c3ccccc13)C(C(=O)OC)(c1cc3c(cc1OC)N(C)C1C(O)(C(=O)NNC(=O)C4CCCN4C(=O)CNC(=O)OCc4ccccc4)C(O)C4(CC)C=CCN5CCC31C54)C2 (stereo not drawn) | 19.0
CC[C@]1(O)C[C@@H]2CN(CCc3c([nH]c4ccccc34)[C@@](C(=O)OC)(c3cc4c(cc3OC)N[C@H]3[C@@](O)(C(=O)NN)[C@H](O)[C@]5(CC)C=CCN6CC[C@]43[C@@H]65)C2)C1 [JJ-CCXJ, hydrazinolyzed vincristine] | 19.7
CC[C@]1(O)C[C@@H]2CN(CCc3c([nH]c4ccccc34)[C@@](C(=O)OC)(c3cc4c(cc3OC)N(C)[C@H]3[C@@](O)(C(=O)NN)[C@H](O)[C@]5(CC)C=CCN6CC[C@]43[C@@H]65)C2)C1 [JJ-CCJ, hydrazinolyzed vinblastine] | 20.1
CCC12C=CCN3CCC4(c5cc(C6(C(=O)OC)CC7CC(C(C)(F)F)CN(Cc8c6[nH]c6ccccc86)C7)c(OC)cc5N(C)C4C(O)(C(=O)NNC(=O)C4CCCN4C(=O)CNC(=O)OCc4ccccc4)C1O)C32 (stereo not drawn) | 18.7

Note: attention shifts to another entry.
Observed Body weight (g) Pre-dose, HL-60 xenografts, CCC1(O)CC2CN(CCc3c([nH]c4ccccc34)C(C(=O)OC)(c3cc4c(cc3OC)N(C)C3C(O)(C(=O)NNC(=O)C5CCCN5C(=O)CNC(=O)OCc5ccccc5)C(O)C5(CC)C=CCN6CCC43C65)C2)C1 (stereo not drawn) : 18.8

###

Tumor weight listing for selected molecules.
Test system: LOVO xenografts
Test: LOVO xenografts in nude mice
Type: in vivo
Details: LOVO xenograft nude mice, 1 mg/kg
// note: answer is a bare numeric in g

CCC1(O)CC2CN(CCc3c([nH]c4ccccc34)C(C(=O)OC)(c3cc4c(cc3OC)N(C)C3C(O)(C(=O)NNC(=O)C5CCCN5C(=O)CNC(=O)OCc5ccccc5)C(O)C5(CC)C=CCN6CCC43C65)C2)C1 (stereo not shown) | 0.43
CC[C@]1(O)C[C@@H]2CN(CCc3c([nH]c4ccccc34)[C@@](C(=O)OC)(c3cc4c(cc3OC)N(C)[C@H]3[C@@](O)(C(=O)OC)[C@H](OC(C)=O)[C@]5(CC)C=CCN6CC[C@]43[C@@H]65)C2)C1 [Vinblastine, reference compound] | 1.59
CCC12C=CCN3CCC4(c5cc(C6(C(=O)OC)CC7CC(C(C)(F)F)CN(Cc8c6[nH]c6ccccc86)C7)c(OC)cc5N(C)C4C(O)(C(=O)NNC(=O)C4CCCN4C(=O)CNC(=O)OCc4ccccc4)C1O)C32 (stereo not shown) | 0.47

Now take the following molecule into account.
Bench note, LOVO xenografts: CCC1(O)CC2CN(CCc3c([nH]c4ccccc34)C(C(=O)OC)(c3cc4c(cc3OC)N(C=O)C3C(O)(C(=O)NNC(=O)C5CCCN5C(=O)CNC(=O)OCc5ccccc5)C(O)C5(CC)C=CCN6CCC43C65)C2)C1 (stereo not shown) , Tumor weight reads 0.59

###

Test system: human liver cancer cell line HepG2
Assay: MTT cell growth inhibition, HepG2
Format: cell-based
Conditions: Homo sapiens; HepG2, MTT assay, 72 h; read-out: IC50, growth of tumor cell line
pIC50: −log10 of the molar value.
Tag: 1 if measured pIC50 is not below 8, -1 if it is.

CC[C@]12C=CCN3CC[C@@]4(c5cc([C@@]6(C(=O)OC)C[C@@H]7C[C@@H](C(C)(F)F)CN(Cc8c6[nH]c6ccccc86)C7)c(OC)cc5N(C)[C@H]4[C@@](O)(C(=O)OC)[C@@H]1OC(C)=O)[C@@H]32 [Vinflunine, reference compound] | -1

Is pIC50 at least 8? Consider CC[C@]12C=CCN3CC[C@@]4(c5cc([C@@]6(C(=O)OC)C[C@@H]7C[C@@H](C(C)(F)F)CN(Cc8c6[nH]c6ccccc86)C7)c(OC)cc5N(C)[C@H]4[C@@](O)(C(=O)NN)[C@@H]1O)[C@@H]32 [JJ-CCFN, hydrazinolyzed vinflunine]
-1

Say whether CCC1=C[C@@H]2CN(C1)Cc1c([nH]c3ccccc13)[C@@](C(=O)OC)(c1cc3c(cc1OC)N(C)[C@H]1[C@@](O)(C(=O)NN)[C@H](O)[C@]4(CC)C=CCN5CC[C@]31[C@@H]54)C2 [JJ-CCRB, hydrazinolyzed vinorelbine] shows pIC50 of 8 or more.
-1

Textbook exercise: given the entry CC[C@]1(O)C[C@@H]2CN(CCc3c([nH]c4ccccc34)[C@@](C(=O)OC)(c3cc4c(cc3OC)N(C)[C@H]3[C@@](O)(C(=O)OC)[C@H](OC(C)=O)[C@]5(CC)C=CCN6CC[C@]43[C@@H]65)C2)C1 [Vinblastine, reference compound] , state whether its pIC50 is greater than or equal to 8.
1

Please tell me: is the compound CC[C@]1(O)C[C@H]2CN(CCc3c([nH]c4ccccc34)[C@@](C(=O)OC)(c3cc4c(cc3OC)N(C=O)[C@H]3[C@@](O)(C(=O)OC)[C@H](OC(C)=O)[C@]5(CC)C=CCN6CC[C@]43[C@@H]65)C2)C1 [Vincristine, reference compound] at or over 8 in terms of pIC50?
1

###

Tested on: human leukemia cell line K562
Assay: MTT cell growth inhibition, K562
Type: cell-based
Details: Homo sapiens; K562, MTT assay, 72 h; read-out: IC50, growth of tumor cell line
# pIC50 per entry
On this scale, pIC50 is minus log10 of a concentration expressed in M (mol/L).

Reference set (3 entries):
CC[C@]12C=CCN3CC[C@@]4(c5cc([C@@]6(C(=O)OC)C[C@@H]7C[C@@H](C(C)(F)F)CN(Cc8c6[nH]c6ccccc86)C7)c(OC)cc5N(C)[C@H]4[C@@](O)(C(=O)NN)[C@@H]1O)[C@@H]32 [JJ-CCFN, hydrazinolyzed vinflunine] | 7.25
CCC1=C[C@@H]2CN(C1)Cc1c([nH]c3ccccc13)[C@@](C(=O)OC)(c1cc3c(cc1OC)N(C)[C@H]1[C@@](O)(C(=O)OC)[C@H](OC(C)=O)[C@]4(CC)C=CCN5CC[C@]31[C@@H]54)C2 [Vinorelbine, reference compound] | 7.91
CC[C@]1(O)C[C@H]2CN(CCc3c([nH]c4ccccc34)[C@@](C(=O)OC)(c3cc4c(cc3OC)N(C=O)[C@H]3[C@@](O)(C(=O)OC)[C@H](OC(C)=O)[C@]5(CC)C=CCN6CC[C@]43[C@@H]65)C2)C1 [Vincristine, reference compound] | 8.97

What the record says about CC[C@]12C=CCN3CC[C@@]4(c5cc([C@@]6(C(=O)OC)C[C@@H]7C[C@@H](C(C)(F)F)CN(Cc8c6[nH]c6ccccc86)C7)c(OC)cc5N(C)[C@H]4[C@@](O)(C(=O)OC)[C@@H]1OC(C)=O)[C@@H]32 [Vinflunine, reference compound] : pIC50 is 7.72

###

Body weight (g) Post-dose overview
Test system: HL-60 xenografts
Experiment: HL-60 xenografts in nude mice
Assay type: in vivo
Details: HL-60 xenograft nude mice, 1 mg/kg
Method: Experimental method: The MDA-MB-231 cells at logarithmic phase were digested and washed twice with PBS. Then, 100 μL cells (1×10^7) were inoculated subcutaneously on the backs of female BALB/nu/nu mice. […] 1 mg/kg drugs were injected intraperitoneally every two days, meanwhile body weight and tumor sizes were measured. […] Tumor volumes were measured using the following formula: V=½(ab^2), whereas a refers to the longest diameter and b is the shortest diameter. […]
Quick note: give the figure in g, leave out the unit.

Some entries whose results are on file:
CCC12C=CCN3CCC4(c5cc(C6(C(=O)OC)CC7CC(C(C)(F)F)CN(Cc8c6[nH]c6ccccc86)C7)c(OC)cc5N(C)C4C(O)(C(=O)NNC(=O)C4CCCN4C(=O)CNC(=O)OCc4ccccc4)C1O)C32 (stereo not shown) | 18.6
CC[C@]1(O)C[C@@H]2CN(CCc3c([nH]c4ccccc34)[C@@](C(=O)OC)(c3cc4c(cc3OC)N(C)[C@H]3[C@@](O)(C(=O)NN)[C@H](O)[C@]5(CC)C=CCN6CC[C@]43[C@@H]65)C2)C1 [JJ-CCJ, hydrazinolyzed vinblastine] | 16.1
CCC1=CC2CN(C1)Cc1c([nH]c3ccccc13)C(C(=O)OC)(c1cc3c(cc1OC)N(C)C1C(O)(C(=O)NNC(=O)C4CCCN4C(=O)CNC(=O)OCc4ccccc4)C(O)C4(CC)C=CCN5CCC31C54)C2 (stereo not shown) | 19.2

Consider the additional compound presented here.
CC[C@]1(O)C[C@@H]2CN(CCc3c([nH]c4ccccc34)[C@@](C(=O)OC)(c3cc4c(cc3OC)N[C@H]3[C@@](O)(C(=O)NN)[C@H](O)[C@]5(CC)C=CCN6CC[C@]43[C@@H]65)C2)C1 [JJ-CCXJ, hydrazinolyzed vincristine] has a reported Body weight (g) Post-dose of 16.3
